meta.source: paper PMC11876601

Test system: PaTu-8988-T cells
TEST_PROTOCOL: Drug combination viability screen (ATPlite, 72 h)
Format: cell-based, human
CONDITION_DESCRIPTION: Homo sapiens, PaTu 8988t, read-out: EC50,GEM
REPORTED_PROPERTY: EC50

Q: Look up EC50 for this molecule: `Nc1ccn([C@@H]2O[C@H](CO)[C@@H](O)C2(F)F)c(=O)n1`
Ans: ≥ 0.01 µM

###

TGT: ACVR1 (Homo sapiens, UniProt Q04771)
Construct: endogenous in cells
Sequence (Q04771 21-509): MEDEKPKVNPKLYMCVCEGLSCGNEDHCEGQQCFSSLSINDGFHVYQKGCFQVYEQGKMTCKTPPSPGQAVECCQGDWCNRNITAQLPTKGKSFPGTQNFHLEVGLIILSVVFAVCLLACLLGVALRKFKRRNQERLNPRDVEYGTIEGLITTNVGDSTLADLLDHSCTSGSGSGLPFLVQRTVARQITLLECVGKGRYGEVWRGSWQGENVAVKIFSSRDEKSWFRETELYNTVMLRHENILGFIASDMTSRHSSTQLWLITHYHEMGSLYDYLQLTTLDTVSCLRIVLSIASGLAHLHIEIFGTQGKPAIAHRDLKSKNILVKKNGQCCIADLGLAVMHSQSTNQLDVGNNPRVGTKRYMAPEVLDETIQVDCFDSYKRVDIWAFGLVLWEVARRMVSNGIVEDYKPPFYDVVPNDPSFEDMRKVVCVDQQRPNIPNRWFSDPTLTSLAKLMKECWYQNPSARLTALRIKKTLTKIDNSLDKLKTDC
TEST_PROTOCOL: Kinobeads competition pulldown in AsPC-1 lysate
CONDITION_DESCRIPTION: Kinobeads residual binding curve
REPORTED_PROPERTY: pEC50
Scale: negative log10 of molar concentration, which is what pEC50 denotes.

Q: Look up pEC50 for this molecule: `CNCc1ccc(-c2cc(-c3nc(-c4ccc(S(=O)(=O)C(C)C)cc4)cnc3N)on2)cc1`
Ans: 8.68

###

Test system: p-sites in DNA-damaged AsPC-1 cells
TEST_PROTOCOL: decryptM dose-resolved phosphoproteomics of ATRi in GEM-pre-treated cells
Format: cell-based, human
CONDITION_DESCRIPTION: Homo sapiens, ASPC1; p-site dose-response in GEM-pre-treated cells; read-out: EC50, PPM1G S201
Method: Cell culture medium was replaced 24 h after seeding. […] For time point 0, AsPC-1 cells were treated with a vehicle and lysed immediately. The final DMSO concentration in all experiments was 0.2%. Briefly, cells were washed twice with PBS and lysed in SDS lysis buffer (2% SDS in 40 mM Tris-HCl, pH 7.6), followed by sonication for 10 min (30 s on/30 s off) using a Bioruptor (Diagenode). […]
REPORTED_PROPERTY: EC50 (µM)
Numbers only here, please. The scale is µM.

Q: Look up EC50 for this compound: `CNCc1ccc(-c2cc(-c3nc(-c4ccc(S(=O)(=O)C(C)C)cc4)cnc3N)on2)cc1`
Ans: 0.0616

###

System: MiaPaCa-2
TEST_PROTOCOL: cells
Design: ATPlite luminescence viability of PDAC cell lines, 11-dose single-agent curves, 4-parameter fit
CONDITION_DESCRIPTION: Homo sapiens, MIA PaCa-2, 72 h, read-out: EC50 [nM]
Binary call on EC50 with cut-off 2000 nM: strictly below means TRUE, and equality or higher means FALSE.

Q: Lab log: compare recorded EC50 with 2000 nM; is it strictly lower for `COc1cc2c(Oc3ccc4[nH]c(C)cc4c3F)ncnc2cc1OCCCN1CCCC1` ?
Ans: FALSE

Q: Lab log: compare recorded EC50 with 2000 nM; is it strictly lower for `C=CC(=O)Nc1cccc(Nc2nc(Nc3ccc(N4CCN(C(C)=O)CC4)cc3OC)ncc2C(F)(F)F)c1` ?
Ans: FALSE

Q: Lab log: compare recorded EC50 with 2000 nM; is it strictly lower for `CN1CCN(c2ccc3nc(-c4c(N)c5c(F)cccc5[nH]c4=O)[nH]c3c2)CC1` ?
Ans: TRUE

Q: Lab log: compare recorded EC50 with 2000 nM; is it strictly lower for `COc1cc(Nc2c(C#N)cnc3cc(OCCCN4CCN(C)CC4)c(OC)cc23)c(Cl)cc1Cl` ?
Ans: FALSE

Q: Lab log: compare recorded EC50 with 2000 nM; is it strictly lower for `Cc1nc(-c2cn3c(n2)-c2ccc(-c4cnn(C(C)(C)C(N)=O)c4)cc2OCC3)n(C(C)C)n1` ?
Ans: TRUE

Q: Lab log: compare recorded EC50 with 2000 nM; is it strictly lower for `COc1cc(CCc2cc(NC(=O)c3ccc(N4C[C@@H](C)N[C@@H](C)C4)cc3)n[nH]2)cc(OC)c1` ?
Ans: FALSE

Q: Lab log: compare recorded EC50 with 2000 nM; is it strictly lower for `COc1ccc(CN2[C@@H]3C[C@H]2CN(c2ccc(-c4cc(OCC(C)(C)O)cn5ncc(C#N)c45)cn2)C3)cn1` ?
Ans: FALSE

Q: Lab log: compare recorded EC50 with 2000 nM; is it strictly lower for `COc1c(OCCCN2CCOCC2)ccc2c1N=C(NC(=O)c1cnc(N)nc1)N1CCN=C21` ?
Ans: TRUE

###

Tested on: p-sites in DNA-damaged AsPC-1 cells
TEST_PROTOCOL: decryptM dose-resolved phosphoproteomics of ATRi in GEM-pre-treated cells
Type: cell-based, human
CONDITION_DESCRIPTION: PPP6R3-pS825
For each record, write down the corresponding Log2 PTM response (GEM+ATRi vs. GEM).
Give your answer as a number; write no unit.

Q: Look up Log2 PTM response (GEM+ATRi vs. GEM) for this compound: C[C@@H]1COCCN1c1cc(C2([S@](C)(=N)=O)CC2)nc(-c2cc[nH]c3nccc2-3)n1 [Ceralasertib]
Ans: -1.6

Q: Look up Log2 PTM response (GEM+ATRi vs. GEM) for this compound: CNCc1ccc(-c2cc(-c3nc(-c4ccc(S(=O)(=O)C(C)C)cc4)cnc3N)on2)cc1 [Berzosertib]
Ans: -1.4

Q: Look up Log2 PTM response (GEM+ATRi vs. GEM) for this compound: Nc1nn2cc(F)cnc2c1C(=O)Nc1cncc(F)c1N1CCC(C(=O)N2CCN(C3COC3)CC2)CC1 [Gartisertib]
Ans: -1

Q: Look up Log2 PTM response (GEM+ATRi vs. GEM) for this compound: C[C@@H]1COCCN1c1cc(-c2ccnn2C)c2ccnc(-c3ccn[nH]3)c2n1 [Elimusertib]
Ans: -0.5

###

For each record, write down the corresponding Kd.
TGT: MAP3K1 ; Q13233 (Homo sapiens, UniProt Q13233)
Sequence (Q13233 whole entry): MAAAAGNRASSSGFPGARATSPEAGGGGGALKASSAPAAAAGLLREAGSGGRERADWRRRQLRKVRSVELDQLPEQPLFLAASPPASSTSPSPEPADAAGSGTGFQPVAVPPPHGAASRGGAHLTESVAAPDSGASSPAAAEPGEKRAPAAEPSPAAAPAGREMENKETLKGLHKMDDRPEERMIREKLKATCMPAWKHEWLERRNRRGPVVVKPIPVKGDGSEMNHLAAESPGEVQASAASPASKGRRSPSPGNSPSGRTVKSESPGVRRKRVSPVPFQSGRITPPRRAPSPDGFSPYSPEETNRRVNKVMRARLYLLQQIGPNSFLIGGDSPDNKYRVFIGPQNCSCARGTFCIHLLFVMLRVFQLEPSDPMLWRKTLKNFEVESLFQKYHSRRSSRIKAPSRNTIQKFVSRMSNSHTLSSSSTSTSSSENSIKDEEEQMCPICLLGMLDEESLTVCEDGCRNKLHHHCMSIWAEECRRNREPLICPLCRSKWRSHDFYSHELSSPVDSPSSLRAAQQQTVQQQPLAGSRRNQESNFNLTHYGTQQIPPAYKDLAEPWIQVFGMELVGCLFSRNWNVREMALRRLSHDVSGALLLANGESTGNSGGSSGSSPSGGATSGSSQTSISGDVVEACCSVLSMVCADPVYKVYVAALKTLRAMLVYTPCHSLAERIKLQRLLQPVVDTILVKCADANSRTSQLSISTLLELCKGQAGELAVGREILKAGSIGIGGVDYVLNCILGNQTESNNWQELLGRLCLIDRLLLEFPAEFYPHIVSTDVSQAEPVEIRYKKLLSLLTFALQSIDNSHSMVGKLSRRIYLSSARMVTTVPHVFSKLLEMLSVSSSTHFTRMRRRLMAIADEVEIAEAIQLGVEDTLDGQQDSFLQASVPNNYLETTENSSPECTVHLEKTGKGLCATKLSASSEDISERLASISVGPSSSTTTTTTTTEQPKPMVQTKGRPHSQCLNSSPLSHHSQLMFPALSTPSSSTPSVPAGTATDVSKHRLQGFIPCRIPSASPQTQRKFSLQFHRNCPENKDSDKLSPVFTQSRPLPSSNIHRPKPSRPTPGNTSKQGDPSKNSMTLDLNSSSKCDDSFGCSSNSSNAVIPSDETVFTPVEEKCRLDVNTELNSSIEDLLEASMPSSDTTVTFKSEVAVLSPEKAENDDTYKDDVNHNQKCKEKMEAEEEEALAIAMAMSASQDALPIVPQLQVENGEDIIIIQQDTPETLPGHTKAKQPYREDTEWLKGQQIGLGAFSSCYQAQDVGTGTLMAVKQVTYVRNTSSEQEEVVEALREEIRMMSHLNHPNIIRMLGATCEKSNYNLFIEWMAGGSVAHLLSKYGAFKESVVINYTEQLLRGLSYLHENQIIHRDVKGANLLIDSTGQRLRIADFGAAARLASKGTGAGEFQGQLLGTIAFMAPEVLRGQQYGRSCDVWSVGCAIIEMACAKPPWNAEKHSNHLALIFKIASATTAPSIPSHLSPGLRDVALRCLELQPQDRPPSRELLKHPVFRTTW
TEST_PROTOCOL: biochemical
Report the figure along with its unit, number first.

Q: State its Kd on MAP3K1 ; Q13233 (Homo sapiens, UniProt Q13233): Nc1nn2cc(F)cnc2c1C(=O)Nc1cncc(F)c1N1CCC(C(=O)N2CCN(C3COC3)CC2)CC1 [Gartisertib]
Ans: 422 nM

Q: State its Kd on MAP3K1 ; Q13233 (Homo sapiens, UniProt Q13233): CNCc1ccc(-c2cc(-c3nc(-c4ccc(S(=O)(=O)C(C)C)cc4)cnc3N)on2)cc1 [Berzosertib]
Ans: 11.6 nM

###

TGT: ACVR2 (Homo sapiens)
Construct: endogenous in cells
TEST_PROTOCOL: Kinobeads competition pulldown in AsPC-1 lysate
CONDITION_DESCRIPTION: read-out: KDapp
pKd: −log10 of the molar value.
REPORTED_PROPERTY: pKd

Q: Look up pKd for this compound: CNCc1ccc(-c2cc(-c3nc(-c4ccc(S(=O)(=O)C(C)C)cc4)cnc3N)on2)cc1 [Berzosertib]
Ans: > 9.00

###

Test system: PANC-1
TEST_PROTOCOL: cells
Design: Viability of PDAC cell lines, ATPlite luminescence, 11-dose single-agent curve fit
CONDITION_DESCRIPTION: Homo sapiens, PANC-1, 72 h, read-out: EC50 [nM]
Class (by EC50) -- small value: < 1000 nM; mid value: ≥ 1000 nM and < 4000 nM; large value: ≥ 4000 nM

Q: Exercise: read the entry COc1cc(Nc2ncc3c(n2)-c2ccc(Cl)cc2C(c2c(F)cccc2OC)=NC3)ccc1C(=O)O [Alisertib] and state which class it falls under.
Ans: small value

Q: Exercise: read the entry O=S(=O)(c1cccc2cnccc12)N1CCCNCC1 [Fasudil] and state which class it falls under.
Ans: large value

Q: Exercise: read the entry COC(=O)N[C@@H](C)CNc1nccc(-c2cn(C(C)C)nc2-c2cc(Cl)cc(NS(C)(=O)=O)c2F)n1 [Encorafenib] and state which class it falls under.
Ans: large value

Q: Exercise: read the entry CC(=O)c1c(C)c2cnc(Nc3ccc(N4CCNCC4)cn3)nc2n(C2CCCC2)c1=O [Palbociclib] and state which class it falls under.
Ans: large value

Q: Exercise: read the entry COCCNc1cc(NC(=O)N2CCCc3cc(CN4CCN(C)CC4=O)c(C=O)nc32)ncc1C#N [Roblitinib] and state which class it falls under.
Ans: mid value

Q: Exercise: read the entry CO[C@]1(C(=O)N[C@@H](C)c2ccc(-n3cc(F)cn3)nc2)CC[C@H](c2nc(C)cc(Nc3cc(C)[nH]n3)n2)CC1 [Pralsetinib] and state which class it falls under.
Ans: mid value

Q: Exercise: read the entry COc1cc2nccc(Oc3ccc(NC(=O)C4(C(=O)Nc5ccc(F)cc5)CC4)cc3)c2cc1OC [Cabozantinib] and state which class it falls under.
Ans: mid value

Q: Exercise: read the entry N#CCC1(n2cc(-c3ncnc4[nH]ccc34)cn2)CN(C2CCN(C(=O)c3ccnc(C(F)(F)F)c3F)CC2)C1 [Itacitinib] and state which class it falls under.
Ans: small value

Q: Exercise: read the entry CS(=O)(=O)CCNCc1ccc(-c2ccc3ncnc(Nc4ccc(OCc5cccc(F)c5)c(Cl)c4)c3c2)o1 [Lapatinib] and state which class it falls under.
Ans: large value

Q: Exercise: read the entry Cc1cn(-c2cc(NC(=O)c3ccc(C)c(Nc4nccc(-c5cccnc5)n4)c3)cc(C(F)(F)F)c2)cn1 [Nilotinib] and state which class it falls under.
Ans: mid value

Q: Exercise: read the entry CNC(=O)c1c(C)oc2cc(Oc3ncnc4cc(OC)c(OC)cc34)ccc12 [Fruquintinib] and state which class it falls under.
Ans: small value

Q: Exercise: read the entry Cc1cc2c(F)c(Oc3ncnn4cc(OC[C@@H](C)OC(=O)[C@H](C)N)c(C)c34)ccc2[nH]1 [Brivanib alaninate] and state which class it falls under.
Ans: mid value

Q: Exercise: read the entry Cc1ccc(F)c(NC(=O)Nc2ccc(-c3cccc4[nH]nc(N)c34)cc2)c1 [Linifanib] and state which class it falls under.
Ans: mid value

Q: Exercise: read the entry N#CCNC(=O)c1ccc(-c2ccnc(Nc3ccc(N4CCOCC4)cc3)n2)cc1 [Momelotinib] and state which class it falls under.
Ans: large value

Q: Exercise: read the entry Cn1ncnc1[C@H]1c2n[nH]c(=O)c3cc(F)cc(c23)N[C@@H]1c1ccc(F)cc1 [Talazoparib] and state which class it falls under.
Ans: mid value

Q: Exercise: read the entry COc1cc2/c(=N/c3ccc(Br)cc3F)nc[nH]c2cc1OCC1CCN(C)CC1 [Vandetanib] and state which class it falls under.
Ans: mid value
